Quick reference for pIC50 among some compounds
Test system: MOLM-13 cells
Assay: MOLM13 CTG - analysis of cell proliferation (Cell Titre Glo)
Format: cell-based
Conditions: Homo sapiens, geometric mean, read-out: CTG MOLM13 cells IC50 GEOMEAN
Scale for pIC50: -log10 of concentration given in mol/L; no unit attached.

                                   compound         target  attribute_measured  result_number
0  O=C(NCc1cn2cc(CNCC3CCCCC3)ccc2n1)c1cc(=O)n2ccccc2n1  MOLM-13 cells               pIC50           5.06

Inquiry: Tell me the measured pIC50 of `CC(C)(C)C(C)(C)NCc1ccc2nc(CNC(=O)c3cc(=O)n4ccccc4n3)cn2c1` , please.
Reply text: 5.01

Inquiry: Check `Oc1cc(-c2cn(Cc3cn4cc(CNCC5CCC5)ccc4n3)nn2)c2cn[nH]c2c1` too.
Reply text: 4.95

Inquiry: Request: O=C(NCc1cn2cc(C3COCCN3)ccc2n1)c1cc(=O)n2ccccc2n1 (stereo not shown)
Reply text: 4.86

###

Target: METTL3/14 (Homo sapiens)
Construct: The enzyme used was full-length his-tagged METTL3; His; made in house
Assay: METTL3/14 methyltransferase assay (METTL3_14 RFMS, RapidFire mass spectrometry)
Assay type: biochemical
Details: 5 nM METTL3/14, 0.2 μM RNA substrate, 0.5 μM SAM; lower limit of the assay IC50=5 nM; Compounds 63-265; read-out: METTL3_14 RFMS IC50
attribute measured: pIC50
Scale: pIC50 equals -log10([C]), with [C] in mol/L.

Some molecules with known pIC50 results, for comparison:
>>> print(df.to_string())
                                   molecule  result_number
0  O=C(NCc1cn2cc(CN3CCCC(C(F)(F)F)C3)ccc2n1)c1cc(=O)n2ccccc2n1 (centres unmarked)           7.31
1  CC1(C)COC(CNCc2ccc3nc(CNC(=O)c4cc(=O)n5ccccc5n4)cn3c2)C1 (centres unmarked)           6.65
2  O=C(NCc1cn2cc(C3(NCC4CCCCC4)CC3)ccc2n1)c1cc(=O)n2ccccc2n1           6.13
3  O=C(NCc1cn2cc(CN3C4CCC3CC4)ccc2n1)c1cc(=O)n2ccccc2n1           6.41

Inquiry: Give the measured pIC50 of `CC(C)(C)C(=O)N1CCN(Cc2ccc3nc(CNC(=O)c4cc(=O)n5ccccc5n4)cn3c2)CC1` .
Reply text: 4.98

Inquiry: Request: `O=C(NCc1cn2cc(CNCC3CCCCC3)ccc2n1)c1cc(=O)n2c(n1)CCCC2`
Reply text: 6.67

Inquiry: Subsequent entry: `O=C(NCc1cn2cc(CN3CCC(F)(F)CC3)ccc2n1)c1cc(=O)n2ccccc2n1`
Reply text: 7.07

Inquiry: Same question for `O=C(NCc1cn2cc(CNCC3CCCCC3)ccc2n1)c1cc(Br)cc2[nH]ncc12` please.
Reply text: 7.36

Inquiry: What do we get for `O=C(NCc1cn2cc(CNCC3CCCCC3)ccc2n1)c1cccc2[nH]ncc12` ?
Reply text: 6.75

Inquiry: Here is the next molecule: CC1CCCN(Cc2ccc3nc(CNC(=O)c4cc(=O)n5ccccc5n4)cn3c2)C1 (centres unmarked)
Reply text: 7.49

Inquiry: Continue with `O=C(NCc1cn2cc(CNCC3(F)CCC3)ccc2n1)c1cc(=O)n2ccccc2n1`
Reply text: 7.81

Inquiry: # repeat for `CC(=O)N1CCN(Cc2ccc3nc(CNC(=O)c4cc(=O)n5ccccc5n4)cn3c2)CC1`
Reply text: 5.09

Inquiry: Field entry: CC(C)(C)C1CCC(NCc2ccc3nc(CNC(=O)c4cc(=O)n5ccccc5n4)cn3c2)CC1 (centres unmarked)
Reply text: 6.65

Inquiry: Now the molecule `O=C(NCc1cn2cc(CNC3CCC(F)(F)CC3)ccc2n1)c1cc(=O)n2ccccc2n1`
Reply text: 7.36

Inquiry: Item: COc1cccc2c1OCC(c1ccc3nc(CNC(=O)c4cc(=O)n5ccccc5n4)cn3c1)NC2 (centres unmarked)
Reply text: 5.46

Inquiry: Please answer likewise for CC(NCc1ccc2nc(CNC(=O)c3cc(=O)n4ccccc4n3)cn2c1)C1CCCCC1 (centres unmarked)
Reply text: 7.49

Inquiry: Try the molecule O=C(NCc1cn2cc(CNCC3CC34CC4)ccc2n1)c1cc(=O)n2ccccc2n1 (centres unmarked)
Reply text: 7.73

Inquiry: Same for `O=C(NCc1cn2cc(CN3CCC(Oc4ccccc4)CC3)ccc2n1)c1cc(=O)n2ccccc2n1`
Reply text: 7.21

Inquiry: Same question for CC(NCC1CCCCC1)c1ccc2nc(CNC(=O)c3cc(=O)n4ccccc4n3)cn2c1 (centres unmarked) please.
Reply text: 6.88

Inquiry: Also `C[C@H](NCc1ccc2nc(CNC(=O)c3cc(=O)n4ccccc4n3)cn2c1)c1ccccc1` ?
Reply text: 7.52

###

Target: METTL3/14 (Homo sapiens)
Construct: The enzyme used was full-length his-tagged METTL3; His; made in house
Test: METTL3/14 methyltransferase assay (METTL3_14 RFMS, RapidFire mass spectrometry)
Assay type: biochemical
Settings: 5 nM METTL3/14, 0.2 μM RNA substrate, 0.5 μM SAM; lower limit of the assay IC50=5 nM; Compounds 63-265; read-out: METTL3_14 RFMS IC50
Here, each record is paired with measured IC50 data.
Response body: numeric value in nM, unit text excluded.

Inquiry: // IC50 lookup, key: `O=C(NCc1cn2cc(CNCC3CCC3)ccc2n1)c1cc(=O)n2ccccc2n1`
Reply text: 6.25

###

Test system: MOLM-13 cells
Assay: MOLM13 CTG - analysis of cell proliferation (Cell Titre Glo)
Type: cell-based
Conditions: Homo sapiens, geometric mean, read-out: CTG MOLM13 cells IC50 GEOMEAN
attribute measured: IC50 (µM)
Output spec: scalar in µM, unitless text.

>>> print(df.to_string())
                                   compound         target  measurement_units  result_number
0  O=C(NCc1cn2cc(CNCCC3CC3)ccc2n1)c1cc(=O)n2ccccc2n1  MOLM-13 cells                 µM            6.8
1  FC1(F)CC(CNCc2ccc3nc(Cc4cn(-c5cccc6[nH]ncc56)nn4)cn3c2)C1  MOLM-13 cells                 µM           5.17
2  Clc1ccc(-c2cn(Cc3cn4cc(CNCC5CCC5)ccc4n3)nn2)c2cn[nH]c12  MOLM-13 cells                 µM           8.36
3  COc1cc(-c2cn(Cc3cn4cc(CNCC5(OC)CCC5)ccc4n3)nn2)c2cn[nH]c2c1  MOLM-13 cells                 µM           0.93

Next compound, please.
Inquiry: I have this compound here, `OC1(CNCc2ccc3nc(Cn4cc(-c5cc(F)cc6[nH]ncc56)nn4)cn3c2)CCC1` , and I need its recorded IC50.
Reply text: 4.38

###

Target: METTL3/14 (Homo sapiens, UniProt Q86U44)
Construct: The enzyme used was full-length his-tagged METTL3; His; made in house
Sequence (Q86U44 whole entry): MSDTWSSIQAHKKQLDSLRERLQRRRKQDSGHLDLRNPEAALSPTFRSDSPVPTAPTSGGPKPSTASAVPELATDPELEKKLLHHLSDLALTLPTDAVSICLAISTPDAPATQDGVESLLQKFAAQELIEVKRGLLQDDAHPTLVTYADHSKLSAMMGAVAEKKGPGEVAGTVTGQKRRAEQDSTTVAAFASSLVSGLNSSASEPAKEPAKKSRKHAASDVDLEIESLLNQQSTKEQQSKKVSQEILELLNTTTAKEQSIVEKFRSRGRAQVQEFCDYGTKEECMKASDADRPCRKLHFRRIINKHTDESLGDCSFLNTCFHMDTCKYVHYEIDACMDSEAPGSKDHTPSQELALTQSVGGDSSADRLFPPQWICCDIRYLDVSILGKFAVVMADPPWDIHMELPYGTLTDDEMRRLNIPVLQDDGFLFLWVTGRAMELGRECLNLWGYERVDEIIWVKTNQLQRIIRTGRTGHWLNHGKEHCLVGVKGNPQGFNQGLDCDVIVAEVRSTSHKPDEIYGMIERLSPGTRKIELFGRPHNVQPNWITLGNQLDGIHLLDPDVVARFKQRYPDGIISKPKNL
Sequence (Q9HCE5 whole entry partner): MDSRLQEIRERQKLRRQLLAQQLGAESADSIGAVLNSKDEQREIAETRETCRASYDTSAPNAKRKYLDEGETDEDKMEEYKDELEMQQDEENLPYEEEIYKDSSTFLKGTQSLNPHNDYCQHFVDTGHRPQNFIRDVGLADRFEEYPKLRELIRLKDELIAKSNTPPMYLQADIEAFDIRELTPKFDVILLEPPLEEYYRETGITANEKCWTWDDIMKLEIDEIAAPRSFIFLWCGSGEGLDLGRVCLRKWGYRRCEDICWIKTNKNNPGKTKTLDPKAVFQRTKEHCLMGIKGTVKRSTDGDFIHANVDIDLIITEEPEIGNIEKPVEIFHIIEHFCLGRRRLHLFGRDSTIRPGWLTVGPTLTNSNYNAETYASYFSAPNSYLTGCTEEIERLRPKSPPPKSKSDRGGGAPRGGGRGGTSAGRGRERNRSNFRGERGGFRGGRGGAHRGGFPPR
Assay: METTL3/14 methyltransferase assay (METTL3_14 RFMS, RapidFire mass spectrometry);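 further: recombinant His-tagged METTL3 with FLAG-tagged METTL14 from baculovirus, SAH product quantified by mass spectrometry against isotope-labelled internal standards, 60 min at room temperature, scaled between no-RNA and DMSO-only wells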
Assay type: biochemical
Details: 5 nM METTL3/14, 0.2 μM RNA substrate, 0.5 μM SAM; lower limit of the assay IC50=5 nM; Compounds 266-351; read-out: METTL3_14 RFMS IC50
IC50 vs 9 nM: less than gives True; not less than gives False.

Here's what some known entries look like.
>>> df
                                   compound                                    target  assigned_label
0  CC1CNC(c2ccc3nc(CNC(=O)c4cc(=O)n5ccccc5n4)cn3c2)CO1 (centres unmarked)  METTL3/14 (Homo sapiens, UniProt Q86U44)           False
1  N#Cc1cc(-c2cn(Cc3cn4cc(CNCC5CCC5)ccc4n3)nn2)c2cn[nH]c2c1  METTL3/14 (Homo sapiens, UniProt Q86U44)            True

Inquiry: Lab log: compare recorded IC50 with 9 nM; is it strictly lower for `OC1(CNCc2ccc3nc(Cn4cc(-c5ccc(F)c6[nH]ncc56)nn4)cn3c2)CCCCC1` ?
Reply text: False

Inquiry: Item: `OC1(CNCc2ccc3nc(Cn4cc(-c5nccc6[nH]ncc56)nn4)cn3c2)CCC1`
Reply text: False

Inquiry: `O=C(O)c1cc(-c2cn(Cc3cn4cc(CNCC5CCC5)ccc4n3)nn2)c2cn[nH]c2c1` , same question.
Reply text: False

Inquiry: Request: `c1cc(-c2ncn(Cc3cn4cc(CNCC5CCC5)ccc4n3)n2)c2cn[nH]c2c1`
Reply text: False
